# System Under Test: Cathepsin S (Homo sapiens, UniProt P25774)
# Sequence (P25774 whole entry): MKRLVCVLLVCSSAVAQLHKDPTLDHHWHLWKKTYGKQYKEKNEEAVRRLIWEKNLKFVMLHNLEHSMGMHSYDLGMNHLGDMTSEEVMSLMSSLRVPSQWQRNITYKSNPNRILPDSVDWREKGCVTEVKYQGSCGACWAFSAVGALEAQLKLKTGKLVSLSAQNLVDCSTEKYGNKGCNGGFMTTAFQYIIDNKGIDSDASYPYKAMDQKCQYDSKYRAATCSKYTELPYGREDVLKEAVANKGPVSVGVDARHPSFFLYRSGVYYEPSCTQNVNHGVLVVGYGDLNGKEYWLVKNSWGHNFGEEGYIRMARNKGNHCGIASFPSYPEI
# Experiment: D3R2024
Readout Kind: IC50 (µM)

Worked examples follow.
* O=C(NC1CCN(c2ccnc(Nc3ccc(F)cc3)n2)C1)c1cc2ccccc2s1 (centres undefined) | 10
* N#Cc1cccc(C(=O)NC2CCN(c3ccnc(Nc4ccc(F)cc4)n3)C2)c1 (centres undefined) | 5.8

a = COc1ccc(Nc2nccc(N3CCC(NC(=O)c4cccc(C#N)c4)C3)n2)cc1 (centres undefined)
b = COc1cc(Nc2nccc(N3CCC(NC(=O)Nc4cc(C)ccc4C)C3)n2)cc(OC)c1OC (centres undefined)
Task: // pick min by IC50: a , b Bench note: the answer is the label of the chosen record.
Result: a

Data provenance: BindingDB's records for doi:10.7270/Q2183BCW
